Target: T1, phAimR D174C-labeled (Bacillus phage phi3T, UniProt P0DOE3 1-378, C6S;C74S;C99S;C136S;C223S;C267S;D174C)
T1 sequence: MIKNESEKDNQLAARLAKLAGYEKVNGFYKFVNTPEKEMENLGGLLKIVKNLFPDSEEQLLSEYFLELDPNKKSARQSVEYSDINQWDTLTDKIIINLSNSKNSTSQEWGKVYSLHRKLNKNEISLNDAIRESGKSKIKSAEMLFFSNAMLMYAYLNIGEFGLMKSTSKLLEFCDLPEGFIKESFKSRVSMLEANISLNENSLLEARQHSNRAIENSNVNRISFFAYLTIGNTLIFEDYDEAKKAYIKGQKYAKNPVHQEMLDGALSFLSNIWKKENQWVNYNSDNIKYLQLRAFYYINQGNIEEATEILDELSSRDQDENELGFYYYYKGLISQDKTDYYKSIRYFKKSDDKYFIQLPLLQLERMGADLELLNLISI
Assay: smFRET titration; no peptide; EMSA: 25 mM Tris-HCl pH 8.0, 150 mM NaCl, 5 mM MgCl2, 5 mM DTT, 0.1 mg/mL BSA, 10% glycerol, room temperature 10 min, 5 nM probe, protein 0-1 (printed 'M', probably uM); smFRET titration buffer not in the material
Details: protein: recombinant; tags: N-terminal 6xHis removed with drICE protease; Alexa488/Cy5 at C174; chain copies: 2; blunt
QUANTITY MEASURED: pKd
Numbers only, as −log10 of the molar value.

Recorded pKd for phi3T target DNA (smFRET titration) (dsDNA) DNA 1: GAAATGTCCAGAAATTCAAAAATCAAAAAATAAGAACATGG DNA 2: CCATGTTCTTATTTTTTGATTTTTGAATTTCTGGACATTTC , please?
5.90
